Provide the reported pKd of each item.
Target: human alpha-synuclein monomer (human, UniProt P37840 1-140)
Assay: SPR (Biacore 8K), IgG captured on anti-human Fc, aSyn monomer injected;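 also: aSyn injected as a dilution series, signal corrected against a reference cell holding an irrelevant IgG, Kd from one-to-one Langmuir kinetic fitting of kon and koff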
Friendly reminder that pKd comes from taking -log10 of the concentration in mol/L.

Need pKd, item H2_1_LC2 (antibody, V domains shown) VH: EVQLVESGGGLVQPGGSLRLSCAASGFTFSNAAMYWVRQAPGKGLELVSRIRTKPNNFATYHADSVKGRFTISRDNSKNTLYLQMNSLRAEDTAVYYCTADMATGDYWGQGTLVTVSS VL: DIQMTQSPSSLSASVGDRVTITCKASQNINKNLDWYQQKPGKAPKPLIYSTNNLQTGVPSRFSGSGSGTDFTLTISSLQPEDFATYYCYQYKSAWTFGQGTKVEIK
8.21

Need pKd of HC2_L1_1 (antibody, V domains shown) VH: EVQLVESGGGLVQPGGSLRLSCAASGFTFSNAAMYWVRQAPGKGLELVSRIRTKPNNYATYHADSVKGRFTISRDNSKNTLYLQMNSLRAEDTAVYYCTADMATGDYWGQGTLVTVSS VL: DIQMTQSPSSLSASVGDRVTITCKASQNINNNLDWYQQKPGKAPKPLIYSTNNLKTGVPSRFSGSGSGTDFTLTISSLQPEDFATYYCYQYKSAWTFGQGTKVEIK , thanks.
8.92
